# ASSAY_DETAILS: LAP4-GFP expression modulators in yeast, confirmation, cell-based, cherry picks, flow cytometry, mother/daughter gates (AID 2271);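 further: ratio of sample to DMSO plate mean so 100% equals DMSO level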
# CONDITION_INFO: S. cerevisiae LAP4-GFP strain, 3 h, at 10 µM, stronger effect = higher value, 100 means same as DMSO control
For each of the compounds below, state its GFP response relative to DMSO.
Answers are plain numbers, in %.

COMPOUND: Cc1ccc2nc(Cl)c3nnnn3c2c1
OBSERVED_RESULT: 281

COMPOUND: COc1ccc(OC)c(CNC(=O)CCC(=O)N2Cc3cccc(OC)c3Oc3ncccc32)c1
OBSERVED_RESULT: 90.6

COMPOUND: O=C1C(=O)c2ccc(-c3ccccc3)cc2-c2ccccc21
OBSERVED_RESULT: 117

COMPOUND: Clc1cnc(N/N=C/c2cccs2)c(Cl)c1
OBSERVED_RESULT: 178

COMPOUND: COCCNC(=O)c1ccccc1-c1nc(-c2ccccc2Cl)no1
OBSERVED_RESULT: 101

COMPOUND: O=c1c2c(-c3cccs3)csc2ncn1/N=C/c1ccccn1
OBSERVED_RESULT: 119

Provide GFP response relative to DMSO values for the following items, in order.
1. C=CCNC(=S)N/N=C(\C)c1cccc(OC)c1
2. CCCN1CCN(C(=O)c2oc3ccccc3c2NC(=O)COc2ccc(OC)cc2)CC1
3. COc1cccc(C(=O)/C=C/c2ccc(SC)cc2)c1
4. N#C/C(=C\c1c(N2CCCCC2)nc2ccccn2c1=O)C(=O)NCc1ccco1
5. COC(=O)c1cccc(-n2c(CCC(=O)O)ccc2-c2cccs2)c1

Result:
98.8
95.4
103
97.7
104

Respectfully, I request GFP response relative to DMSO for each entry included below.
1. COc1cc(NC(=O)c2cccc(F)c2)ccc1NC(=O)c1cc2ccccc2o1
2. Cc1csc(Nc2ccccc2C(F)(F)F)n1
3. Cc1ccc(N2CCN(C(=O)c3ccccc3)CC2)c(C)c1
4. COc1ccc(/C=C/C(=O)C2C(=O)C=C(C)OC2=O)cc1O (centres undefined)

Result:
[98.8, 105, 95.4, 123]
